Source listed as patent US5846720A.

Test system: G-CSF promoter
assay-procedure: G-CSF promoter/luciferase reporter assay (high-throughput screen I), G21 cells
experimental-context: transcriptional activators, Table 2; 6 h incubation
For each of the molecules below, state its GCSF fold induction relative to solvent control.
Kindly answer with a numeric value in fold, unit omitted.

Reported GCSF fold induction relative to solvent control for c1ccc(-c2cccc(-c3ccccn3)n2)nc1 [Chemical 453] was 0.79

Entry Nc1ccc(SSc2ccc(N)cc2)cc1 [Chemical 1483] — recorded GCSF fold induction relative to solvent control = 4.64

According to the records, this molecule CC(C)(C)c1ccc(Br)cc1 [Chemical 2001] displays GCSF fold induction relative to solvent control of 3.11

The molecule NC1=NCCS1 [Chemical 1552] showed GCSF fold induction relative to solvent control equal to 1.23

Lookup result for CCn1c(=O)[nH]c2ccccc21 [Chemical 322] ; measured GCSF fold induction relative to solvent control: 0.60

Query CN(C)C(=S)SCC#N [Chemical 1793] yields GCSF fold induction relative to solvent control of 9.50

Lab book: GCSF fold induction relative to solvent control of CCOc1ccc2nc3cc(N)ccc3c(N)c2c1 [Chemical 790] noted as 0.01

The molecule listed as Nc1ccc2c(c1)Cc1ccccc1-2 [Chemical 1316] shows GCSF fold induction relative to solvent control equal to 0.74

Value of GCSF fold induction relative to solvent control reported for the molecule Nc1nc(=O)n([C@H]2C[C@H](O)[C@@H](CO)O2)cc1Br [Chemical #542, 5-Bromo-2'-deoxycytidine] is 6.28

For record ClCc1ccc(Cl)cc1 [Chemical 2129] the listed GCSF fold induction relative to solvent control is 3.23

# GCSF fold induction relative to solvent control (molecule: Nc1c(Cl)ncnc1Cl [Chemical 1269] ) is 0.72
